FYI, the data here is from the supplement of paper PMC10065799.

tested on: c-Abl (mouse); test: phosphorylation enrichment, bacterial display (enrichment ratio); higher = better substrate or ligand; peptides without Tyr show the background;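 note: 11-residue human phosphosite peptides and single-mutation variants displayed on the E. coli surface, counted by deep sequencing, each peptide's frequency after selection divided by its frequency in the unselected input library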;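 note: frequency after pTyr selection over input frequency; kinase dosed for 20-30% of maximal phosphorylation in three min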
Rule: phosphorylation enrichment of 0.7 or more gives 1.0; anything lower gives 0.0.

Look over these answered cases.
TKDTFYKQPMV [GBA_Y451_F456V]	1.0
IMICAYLLHRG [PTEN_Y138_V133I]	1.0
STKELYEKFMI	0.0
RDIHDYIKHLG [UNC13C_Y308]	0.0
CTTIHYNYMCT [TP53_Y234_N239T]	0.0

QUERY: State whether the measured phosphorylation enrichment reaches 0.7, counting equality as reaching it, for RLEGVYRNNID [PTEN_Y46]
RESULT: 1.0

QUERY: Does phosphorylation enrichment meet or surpass 0.7 for INSLKYAFNIS [EIF2B5_Y583_YF] ?
RESULT: 0.0

QUERY: Can IEEGTYGVVYR [CDK11B_Y449] be said to have phosphorylation enrichment at or above 0.7?
RESULT: 1.0
